# Lookup of reported IC50 keyed by entry
system: NCI-H358; assay: Cytotoxicity against human NCI-H358 cells harboring KRAS G12C mutant assessed as cell growth inhibition incubated for 24 hrs by MTT assay; assay type: functional, cell-based; settings: NCI-H358, 24 h

>  <query.smiles>
CCN(CC)c1ccc2cc(/C=C/c3ccc4cc(F)c(N5CCN(C)CC5)cc4[n+]3C)c(=O)oc2c1

>  <tested.target>
NCI-H358

>  <result.units>
µM

>  <IC50>
11.9

$$$$
>  <query.smiles>
CCN(CC)c1ccc2cc(/C=C/c3ccc4cc(F)c(NCCN5CCCC5)cc4[n+]3C)c(=O)oc2c1.[I-]

>  <tested.target>
NCI-H358

>  <result.units>
µM

>  <IC50>
4.8

$$$$
